System: Fibroblast
Test: Multiplex assay against human fibroblast
Type: toxicity, cell-based
Conditions: 48 h, 10 µM, compound concentration 10 uM, replicate 2
What Population Apoptotic (%) was measured for each of the following?
Form entry: value (%) — number only.

I'd like to know its Population Apoptotic (%). The molecule in question is COc1ccc(NS(=O)(=O)c2sc3ccc(Cl)cc3c2C)cc1N1CCNCC1.Cl
93

I'd like to know its Population Apoptotic (%). The molecule in question is C1=N/C2=N/c3ccc(OCCN4CCCC4)c(c3)COC/C=C\COCc3cccc(c3)C(=C1)N2
94

I'd like to know its Population Apoptotic (%). The molecule in question is Nc1ccc(C(=O)Nc2cccc(-c3nc(N4CCOCC4)c4oc5ncccc5c4n3)c2)cn1
100

I'd like to know its Population Apoptotic (%). The molecule in question is CCc1cc2c(cc1CC)CC(NC[C@H](O)c1ccc(O)c3[nH]c(=O)ccc13)C2
66

I'd like to know its Population Apoptotic (%). The molecule in question is CNC(=O)c1nn(C)c2c1C(C)(C)Cc1cnc(Nc3ccc(N4CCN(C)CC4)cc3)nc1-2
66
